Target: D141N (Agrobacterium tumefaciens, UniProt P39669, D141N)
Construct: His-tagged, from pBLH1/pBHL1 derivative, expressed in E. coli BL21(DE3); homotetramer
Sequence (P39669 whole entry D141N): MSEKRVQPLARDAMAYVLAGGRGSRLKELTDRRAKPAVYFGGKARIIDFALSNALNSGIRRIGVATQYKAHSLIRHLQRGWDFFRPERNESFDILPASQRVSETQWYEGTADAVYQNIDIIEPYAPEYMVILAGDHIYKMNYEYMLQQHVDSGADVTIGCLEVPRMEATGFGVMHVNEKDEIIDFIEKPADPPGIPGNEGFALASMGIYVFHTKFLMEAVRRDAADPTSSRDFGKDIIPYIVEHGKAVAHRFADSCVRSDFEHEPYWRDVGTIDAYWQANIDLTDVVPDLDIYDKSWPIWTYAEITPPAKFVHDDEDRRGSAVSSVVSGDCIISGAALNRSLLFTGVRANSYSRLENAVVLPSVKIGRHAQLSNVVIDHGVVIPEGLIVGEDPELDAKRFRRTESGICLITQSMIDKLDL
Test: Activator saturation of ADP-Glc synthesis (PPi converted to phosphate, Malachite Green) in 50 mM HEPES pH 7.5, 7 mM MgCl2, 1.5 mM Glc1P, 1.5 mM ATP; modified Hill fit.
Conditions: n = 2; read-out: A0.5
property label: pEC50
// scale note: pEC50 = -log10(conc_M); give the bare number

The recorded pEC50 for entry O=P(O)(O)OC[C@H]1OC(O)(CO)[C@@H](O)[C@@H]1O (stereo partly shown) [Fru6P, fructose 6-phosphate] equals 2.53

----------
Biological target: D141N (Agrobacterium tumefaciens, UniProt P39669, D141N)
Construct: gene glgC; His-tagged, from pBLH1/pBHL1 derivative, expressed in E. coli BL21(DE3); homotetramer
Experiment: Effector saturation of ADP-Glc synthesis (Malachite Green) at pH 7.5 with 1.5 mM Glc1P and 4 mM ATP, effector inhibiting instead of activating; modified Hill fit.
Format: biochemical
Conditions: n = 2; read-out: A0.5 (mM), footnote: I0.5
property label: IC50 (mM)
Answer with a number only, understood to be in mM.

Let me check: CC(=O)C(=O)O [Pyr, pyruvate] , system D141N (Agrobacterium tumefaciens, UniProt P39669, D141N), measured IC50 is 0.075

----------
Readings of Kd for the listed compounds
Target: WT (Agrobacterium tumefaciens)
Construct: gene glgC; His-tagged, from pBLH1/pBHL1 (pET28c derivative), expressed in E. coli BL21(DE3); homotetramer
Sequence (P39669 whole entry): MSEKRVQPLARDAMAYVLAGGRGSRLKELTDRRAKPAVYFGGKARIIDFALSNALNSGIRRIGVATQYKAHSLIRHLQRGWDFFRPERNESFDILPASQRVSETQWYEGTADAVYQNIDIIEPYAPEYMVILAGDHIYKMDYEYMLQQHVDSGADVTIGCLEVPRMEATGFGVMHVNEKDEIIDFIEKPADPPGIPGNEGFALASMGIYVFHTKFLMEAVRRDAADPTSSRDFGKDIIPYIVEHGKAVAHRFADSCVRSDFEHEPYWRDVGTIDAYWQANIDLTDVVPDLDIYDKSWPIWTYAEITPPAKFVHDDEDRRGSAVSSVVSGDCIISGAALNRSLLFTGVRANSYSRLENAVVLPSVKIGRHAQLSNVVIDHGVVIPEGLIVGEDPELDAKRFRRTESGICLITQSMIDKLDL
Experiment: Thermal shift assay (SYPRO Orange) with varied ligand concentration in 50 mM HEPES pH 8.0, 0.02 mg/mL protein, 25-95 C; Tm versus log ligand concentration fitted to obtain Kd.
Assay type: binding
Conditions: n = 3
Write the answer as a number in µM, unit excluded.

1. CC(=O)C(=O)O [Pyr, pyruvate]    233

// below: Kd requested for another compound
The compound O=P(O)(O)OC[C@H]1OC(O)(CO)[C@@H](O)[C@@H]1O (some centres unmarked) [Fru6P, fructose 6-phosphate] , when measured on WT (Agrobacterium tumefaciens), yielded Kd of 1510
